- Assay Target: Steroid 5-alpha-reductase (Rattus norvegicus, UniProt P24008+P31214)
- Sequence (P24008 whole entry): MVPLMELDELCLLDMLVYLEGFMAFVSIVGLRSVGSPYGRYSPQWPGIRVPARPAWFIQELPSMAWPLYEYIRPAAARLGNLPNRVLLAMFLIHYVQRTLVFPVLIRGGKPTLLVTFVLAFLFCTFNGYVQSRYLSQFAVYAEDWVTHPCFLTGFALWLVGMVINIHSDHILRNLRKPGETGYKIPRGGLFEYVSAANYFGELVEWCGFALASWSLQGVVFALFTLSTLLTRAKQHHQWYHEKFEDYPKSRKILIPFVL
- Sequence (P31214 whole entry): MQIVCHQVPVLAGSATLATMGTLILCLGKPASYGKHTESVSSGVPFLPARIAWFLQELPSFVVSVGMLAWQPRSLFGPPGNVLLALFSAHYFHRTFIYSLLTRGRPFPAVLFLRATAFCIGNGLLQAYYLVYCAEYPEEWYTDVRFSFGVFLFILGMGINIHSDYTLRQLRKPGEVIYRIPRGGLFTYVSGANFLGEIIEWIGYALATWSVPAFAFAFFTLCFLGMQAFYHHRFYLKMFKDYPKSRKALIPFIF
- Experimental Protocol: Inhibitory activity against prostatic 5-alpha reductase in Sprague-Dawley rat
- Type: protein assay
Listed below: log10 IC50 values for each entry.
On a log10 scale: recorded IC50, unit nM.

>>> value("COc1ccccc1N1CCN(CCC(Oc2ccc(C(=O)Nc3ccccc3OCCCC(=O)O)cc2)c2ccc(C)cc2)CC1 (centres undefined)")
1.83
>>> value("COc1ccccc1N1CCN(CCC(Oc2ccc(NC(=O)c3ccccc3OCCCC(=O)O)cc2)c2ccc(CC(C)C)cc2)CC1 (centres undefined)")
1.98
>>> value("COc1ccccc1N1CCN(CCC(Oc2ccc(C(=O)Nc3ccccc3OCCCC(=O)O)cc2)c2ccc(Br)cc2)CC1 (centres undefined)")
2.32
>>> value("COc1ccccc1N1CCN(CCCCOc2ccc(C(=O)Nc3ccccc3OCCCC(=O)O)cc2)CC1")
4.63
>>> value("COc1ccccc1N1CCN(CCCCC(Oc2ccc(C(=O)Nc3ccccc3OCCCC(=O)O)cc2)c2ccccc2)CC1 (centres undefined)")
2.96
>>> value("COc1ccccc1N1CCN(CCC(Oc2ccc(NC(=O)c3ccccc3OCCCC(=O)O)cc2)c2ccc(C)cc2)CC1 (centres undefined)")
2.64
>>> value("COc1ccccc1N1CCN(CCCCCCOc2ccc(C(=O)Nc3ccccc3OCCCC(=O)O)cc2)CC1")
3.98
>>> value("COc1ccc(C(CCN2CCN(c3ccccc3OC)CC2)Oc2ccc(C(=O)Nc3ccccc3OCCCC(=O)O)cc2)cc1 (centres undefined)")
2.23

Switching to the query record.
CCc1ccc(C(CCN2CCN(c3ccccc3OC)CC2)Oc2ccc(NC(=O)c3ccccc3OCCCC(=O)O)cc2)cc1 (centres undefined) has a reported log10 IC50 of 2.11
